Target: NR1/NR2D (Rattus norvegicus, UniProt P35439+Q62645)
Sequence (Q62645 28-1323, other chains not shown): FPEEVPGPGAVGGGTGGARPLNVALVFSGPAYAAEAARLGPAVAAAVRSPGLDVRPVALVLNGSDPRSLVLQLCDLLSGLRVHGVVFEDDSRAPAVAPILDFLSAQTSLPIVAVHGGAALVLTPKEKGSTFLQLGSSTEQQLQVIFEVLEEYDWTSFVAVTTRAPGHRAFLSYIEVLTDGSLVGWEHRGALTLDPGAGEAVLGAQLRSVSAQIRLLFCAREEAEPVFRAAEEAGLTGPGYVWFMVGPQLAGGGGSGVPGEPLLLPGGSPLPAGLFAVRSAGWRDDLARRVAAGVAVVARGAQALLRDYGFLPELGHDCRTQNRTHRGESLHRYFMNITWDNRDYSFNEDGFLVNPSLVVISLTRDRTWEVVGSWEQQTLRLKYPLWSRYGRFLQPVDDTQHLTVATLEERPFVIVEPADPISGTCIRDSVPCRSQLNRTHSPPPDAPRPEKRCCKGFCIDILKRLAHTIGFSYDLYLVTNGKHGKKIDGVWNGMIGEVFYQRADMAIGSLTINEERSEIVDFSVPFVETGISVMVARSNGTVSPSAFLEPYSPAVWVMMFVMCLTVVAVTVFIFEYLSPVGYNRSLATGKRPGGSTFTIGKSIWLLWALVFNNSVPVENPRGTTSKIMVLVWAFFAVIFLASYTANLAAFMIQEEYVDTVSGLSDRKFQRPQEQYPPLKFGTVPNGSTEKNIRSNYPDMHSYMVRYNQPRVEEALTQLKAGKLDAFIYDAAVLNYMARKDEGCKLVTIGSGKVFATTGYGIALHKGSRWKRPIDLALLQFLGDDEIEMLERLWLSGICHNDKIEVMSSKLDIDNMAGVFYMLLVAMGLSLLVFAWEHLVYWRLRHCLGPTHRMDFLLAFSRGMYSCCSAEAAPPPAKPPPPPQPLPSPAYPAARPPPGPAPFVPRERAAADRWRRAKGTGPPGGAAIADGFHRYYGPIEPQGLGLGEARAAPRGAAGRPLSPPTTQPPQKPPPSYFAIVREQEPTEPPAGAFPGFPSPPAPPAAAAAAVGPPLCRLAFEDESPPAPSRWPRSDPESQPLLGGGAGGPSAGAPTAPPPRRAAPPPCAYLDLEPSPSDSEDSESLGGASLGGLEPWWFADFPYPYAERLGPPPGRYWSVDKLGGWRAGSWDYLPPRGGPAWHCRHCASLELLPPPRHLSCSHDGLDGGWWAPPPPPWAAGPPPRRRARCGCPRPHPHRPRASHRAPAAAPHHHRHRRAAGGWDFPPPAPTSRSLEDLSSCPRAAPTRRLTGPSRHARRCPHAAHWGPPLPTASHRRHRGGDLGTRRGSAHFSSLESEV
Assay: Two electrode voltage clamp, Xenopus oocytes expressing recombinant NR1/NR2D
Format: cell-based
Conditions: logistic fit, minimum forced to 0; read-out: 2D IC50
pIC50: −log10 of the molar value.
Assign met whenever pIC50 does not fall below 5; assign not met whenever it does.

Field: example entries. Status: answers known.
>>> assigned_class("CCN(CC)C(=S)Oc1ccc(C(=O)Nc2cccc3ccccc23)cc1")
"met"
>>> assigned_class("O=C(O)CCC(=O)N1N=C(c2c(-c3ccccc3)c3cc(Br)ccc3[nH]c2=O)CC1c1ccc(F)cc1 (centres unmarked)")
"not met"
>>> assigned_class("CCN(CC)C(=S)Oc1ccc(C(=O)Nc2ccc(Cl)c3ccccc23)cc1")
"not met"
>>> assigned_class("O=c1[nH]c2ccc(Br)cc2c(-c2ccccc2)c1C1=NNC(c2ccc(F)cc2)C1 (centres unmarked)")
"not met"
>>> assigned_class("CCN(CC)C(=O)Nc1ccc(C(=O)Nc2cccc3ccccc23)cc1")
"not met"

Ask: Say whether O=C(O)CCC(=O)N1N=C(c2c(-c3ccccc3)c3cc(Br)ccc3[nH]c2=O)CC1c1ccccc1 (centres unmarked) shows pIC50 of 5 or more.
Reply: not met
